molecular target: Albumin (Bos taurus, UniProt P02769); experiment: Inhibition of glycation of bovine serum albumin assessed as advanced glycated end product measured after 7 days by spectrofluorimeter in presence of glucose anhydrous; settings: read-out: IC50
Sequence (P02769 whole entry): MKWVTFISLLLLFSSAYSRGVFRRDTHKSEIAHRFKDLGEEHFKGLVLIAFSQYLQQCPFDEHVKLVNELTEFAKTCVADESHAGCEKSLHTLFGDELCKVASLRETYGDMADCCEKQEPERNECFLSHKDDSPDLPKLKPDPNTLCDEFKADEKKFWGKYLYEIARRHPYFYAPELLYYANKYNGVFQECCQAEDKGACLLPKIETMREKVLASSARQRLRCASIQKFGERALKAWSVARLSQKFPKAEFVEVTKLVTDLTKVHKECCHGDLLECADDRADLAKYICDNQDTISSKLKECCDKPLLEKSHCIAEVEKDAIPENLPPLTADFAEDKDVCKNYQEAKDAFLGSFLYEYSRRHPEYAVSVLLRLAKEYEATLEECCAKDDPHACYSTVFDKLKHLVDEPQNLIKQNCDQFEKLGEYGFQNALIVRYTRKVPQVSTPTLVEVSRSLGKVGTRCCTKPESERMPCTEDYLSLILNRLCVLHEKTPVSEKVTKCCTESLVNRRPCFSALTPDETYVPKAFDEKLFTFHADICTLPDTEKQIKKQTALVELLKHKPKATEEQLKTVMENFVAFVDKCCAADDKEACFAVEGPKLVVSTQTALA
pIC50: −log10 of the molar value.
Measurement Name: pIC50

Some compounds with recorded pIC50:
O=C(NCC(=O)N1CCC(c2noc3cc(F)ccc23)CC1)Nc1ccccc1 = 3.41
O=C(C1CCCN1C(=S)Nc1ccccc1Br)N1CCC(c2noc3cc(F)ccc23)CC1 (stereo not given) = 5.11
O=C(C1CCCN1C(=O)Nc1ccccc1F)N1CCC(c2noc3cc(F)ccc23)CC1 (stereo not given) = 4.26
O=C(CNC(=S)Nc1ccccc1Br)N1CCC(c2noc3cc(F)ccc23)CC1 = 5.20
O=C(C1CCCN1C(=O)Nc1ccc(Br)cc1)N1CCC(c2noc3cc(F)ccc23)CC1 (stereo not given) = 5.17

1: O=C(CNC(=S)Nc1cccc(Br)c1)N1CCC(c2noc3cc(F)ccc23)CC1
2: O=C(C1CCCN1C(=S)Nc1ccc(Cl)cc1)N1CCC(c2noc3cc(F)ccc23)CC1 (stereo not given)
3: COc1cccc(NC(=O)NCC(=O)N2CCC(c3noc4cc(F)ccc34)CC2)c1
4: O=C(NCC(=O)N1CCC(c2noc3cc(F)ccc23)CC1)Nc1cccc(F)c1
5: O=C(C1CCCN1C(=S)Nc1ccccc1)N1CCC(c2noc3cc(F)ccc23)CC1 (stereo not given)
**Query** Hi! Can you put these in order of pIC50, lowest number first? Dear reader, please state the labels in the requested order.
**Result** 5, 4, 2, 3, 1

----------
target: UniProt P02769; assay: Inhibition of glycation of bovine serum albumin assessed as advanced glycated end product measured after 7 days by spectrofluorimeter in presence of glucose anhydrous; settings: read-out: IC50
pIC50: −log10 of the molar value.
Measurement Name: pIC50

Some compounds with recorded pIC50:
O=C(C1CCCN1C(=S)Nc1cccc(Cl)c1)N1CCC(c2noc3cc(F)ccc23)CC1 (centres undefined) = 3.90
COc1ccc(NC(=S)NCC(=O)N2CCC(c3noc4cc(F)ccc34)CC2)cc1 = 5.44
O=C(NCC(=O)N1CCC(c2noc3cc(F)ccc23)CC1)Nc1ccc(Cl)cc1 = 4.08
O=C(C1CCCN1C(=O)Nc1cccc(Br)c1)N1CCC(c2noc3cc(F)ccc23)CC1 (centres undefined) = 5.16
O=C(C1CCCN1C(=S)Nc1ccccc1F)N1CCC(c2noc3cc(F)ccc23)CC1 (centres undefined) = 5.11

P: COc1cccc(NC(=S)N2CCCC2C(=O)N2CCC(c3noc4cc(F)ccc34)CC2)c1 (centres undefined)
Q: O=C(NCC(=O)N1CCC(c2noc3cc(F)ccc23)CC1)Nc1cccc(Br)c1
R: O=C(NCC(=O)N1CCC(c2noc3cc(F)ccc23)CC1)Nc1cccc(Cl)c1
S: O=C(C1CCCN1C(=O)Nc1ccc(Cl)cc1)N1CCC(c2noc3cc(F)ccc23)CC1 (centres undefined)
**Query** Hi! Can you put these in order of pIC50, lowest number first? Dear reader, please state the labels in the requested order.
**Result** R, S, P, Q
(R: 3.84, S: 4.22, P: 4.69, Q: 5.03)

----------
target: Albumin (Bos taurus); assay: Inhibition of glycation of bovine serum albumin assessed as advanced glycated end product measured after 7 days by spectrofluorimeter in presence of glucose anhydrous; conditions: read-out: IC50
pIC50: −log10 of the molar value.
Measurement Name: pIC50

COc1ccc(NC(=O)N2CCCC2C(=O)N2CCC(c3noc4cc(F)ccc34)CC2)cc1 (stereo not drawn) = 4.66

1: O=C(C1CCCN1C(=S)Nc1cccc(Br)c1)N1CCC(c2noc3cc(F)ccc23)CC1 (stereo not drawn)
2: COc1ccccc1NC(=O)N1CCCC1C(=O)N1CCC(c2noc3cc(F)ccc23)CC1 (stereo not drawn)
**Query** Compare the recorded pIC50 of 1 and 2 ; state which is larger. Write the label of whichever entry you select.
**Result** 1
